test system: HCT116 WT cells; assay: HCT116 WT cell proliferation / viability (CellTiter-Glo, 6 days); format: cell-based; settings: Homo sapiens, HCT-116, 144 h, HCT116 WT cells, 6 days, CellTiter-Glo; read-out: HCT-116 WT IC50
recorded.endpoint: IC50 (µM)

>  <compound>
CN(Cc1ccc(S(F)(F)(F)(F)F)cc1)C(=O)c1cc2c(cn1)nc(N)c1cnn(C)c12 [Example 574]

>  <IC50 [µM]>
0.878

$$$$

a. CN(Cc1ccc(S(F)(F)(F)(F)F)cc1)C(=O)c1cc2c3c(c(N)nc2cc1F)COC3 [Example 512]
b. Cc1nn(C)c2c1c(N)nc1ccc(C(=O)N(Cc3ccc(C(F)(F)F)cn3)C(C)C)cc12 [Example 432]
Problem: Lowest IC50? choose a or b Which one? Tell me its label.
Solution: a
(a: 1.38 µM, b: 6.39 µM)

----------
As shown below, each of these compounds has a reported IC50 value.
system: HCT116 WT cells; assay: HCT116 WT cell proliferation / viability (CellTiter-Glo, 6 days); format: cell-based; details: Homo sapiens, HCT-116, 144 h, HCT116 WT cells, 6 days, CellTiter-Glo; read-out: HCT-116 WT IC50

Problem: For the compound `CN(Cc1ccc(Br)nn1)C(=O)c1ccc2nc(N)c3c(c2c1)COC3` , give its reported IC50.
Solution: > 10 µM

Problem: For the compound `CC(C)N(Cc1ccc(C2CC2)cn1)C(=O)c1cc2c3c(c(N)nc2cn1)[C@H](C)OC3` , give its reported IC50.
Solution: > 10 µM

Problem: For the compound CC(c1ncc(F)cn1)N(CCOC(F)(F)F)C(=O)c1cc2c3c(c(N)nc2cc1F)COC3 (racemic) , give its reported IC50.
Solution: > 50 µM

Where these numbers come from: patent US20240101570A1
